B1: CPEB3 Ribozyme (parent)
chain: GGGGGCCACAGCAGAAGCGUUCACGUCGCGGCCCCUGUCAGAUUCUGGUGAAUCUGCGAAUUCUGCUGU

Variants of: B1
Assay: self-cleavage, relative activity (ratio to wild type); higher = more cleavage; co-transcriptional
MEASURED ENDPOINT: self-cleavage
Would you mind answering with just the numeric figure?

Some variants with known self-cleavage results, for comparison:
CHANGES: C34U U64G
self-cleavage: 0.928
--
CHANGES: A13C U43G
self-cleavage: 0.32
--
CHANGES: A8C G65A
self-cleavage: 0.928
--
CHANGES: C7A C39A
self-cleavage: 0.186
--
CHANGES: G3C U55A
self-cleavage: 0.0482

Incoming: Give its self-cleavage value. Item: U20C U69A
Outgoing: 0.124

Incoming: Item under review: G50C U67G . Reported self-cleavage?
Outgoing: 1.02

Incoming: Can you look up the measured self-cleavage of G2C G31C for me?
Outgoing: 0.0401

Incoming: Given U53G G56U , state its recorded self-cleavage.
Outgoing: 0.401

Incoming: Any idea what self-cleavage was measured for G1U G2C ?
Outgoing: 0.333

Incoming: # get_value(readout='self-cleavage', item= G17C G47C )
Outgoing: 0.212
